Target: T1, Polyhistidine-tagged recombinant human GFAP expressed from E. coli (human, UniProt P14136 1-432)
T1 construct: also called His-tagged GFAP; not shown: polyhistidine tag
T1 sequence (P14136 whole entry): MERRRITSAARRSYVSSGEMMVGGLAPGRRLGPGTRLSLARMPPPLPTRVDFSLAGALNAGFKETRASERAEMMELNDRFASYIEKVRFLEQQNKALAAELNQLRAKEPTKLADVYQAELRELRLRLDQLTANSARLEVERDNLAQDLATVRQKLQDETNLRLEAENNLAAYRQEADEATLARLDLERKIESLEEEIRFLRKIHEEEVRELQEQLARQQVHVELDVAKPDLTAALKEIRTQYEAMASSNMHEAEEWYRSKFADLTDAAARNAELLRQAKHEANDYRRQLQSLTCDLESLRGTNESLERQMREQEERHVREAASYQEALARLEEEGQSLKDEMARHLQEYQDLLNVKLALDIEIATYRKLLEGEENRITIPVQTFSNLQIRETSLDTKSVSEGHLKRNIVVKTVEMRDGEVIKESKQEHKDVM
Experiment: BLI (Octet QKe); His-tagged GFAP on anti-Penta-HIS sensor, antibody in solution
experimental.readout: kon (M⁻¹ s⁻¹)
Supply the numeric figure in M⁻¹ s⁻¹, leaving out any unit text.

Use these answered entries as a reference point.
[
  {
    "binder": "GFAP-2 (antibody, V domains shown, also called mouse anti-GFAP antibody GFAP-2) VH: DVQLVESGGGLVQPGGSRKLSCAASGFTFSSFGMHWVRQAPEKGLEWVAYISSGSSIIYYADTVKGRFTISRDNPKNTLFLQMTSLRSEDTAMYYCTGSDWGSFAYWGQGTLVTVSA VL: DVVMTQTPLSLPVSLGDQASISCRSSQSLVYSNGNTYLHWYLQKPGQSPKLLIYKVSNRFFGVPDRFSGSGSGTDFTLKISRVEAEDLGVYFCSQSTHVPYTFGGGTKLEIK",
    "value.unit": "M⁻¹ s⁻¹",
    "kon": 593000
  },
  {
    "binder": "GFAP-3 (antibody, V domains shown, also called mouse anti-GFAP antibody GFAP-3) VH: EVKLEESGGGLVQPGGSMKLSCVASGFTFTNYWMSWVRQSPEKGLEWVAQIRLKSDNYATHYAESVKGRFTISRDDSKSSVYLQMNNLRAEDTGIYYCTGGEFLSWFAYWGQGTLVTVSA VL: DIVMSQSPSSLAVSAGEKVTMSCKSSQSLFNSRTRKNYLAWYQQKPGQSPKLLIYWASTRESGVPDRFTGSGSGTDFTLTISSVQAEDLAVYYCKQSYYLYTFGSGTKLEIK",
    "value.unit": "M⁻¹ s⁻¹",
    "kon": 58000
  }
]

**Query** Using the record for GFAP-9 (antibody, V domains shown, also called mouse anti-GFAP antibody GFAP-9) VH: DVQLQESGPGLVKPSQSLSLTCSVTGYSITSGFYWSWIRQFPGNKLEWMGYISYDGSNNYNPSLKNRISITRDTSKNQFFLKLNSVTTEDTATYYCARAYGYDGAWFAYWGQGTLVTVSA VL: DIVMTQSQKFMSTSVGDRVSITCKASQNVRTAVAWYQQKPGQSPKALIYLASNRHTGVPDRFTGSGSGTDFTLTISNVQSEDLADYFCLQHWNNPYTFGGGTKLEIK , state its measured kon.
**Result** 39000

**Query** State its kon for this binder: GFAP-19 (antibody, V domains shown, also called mouse anti-GFAP antibody GFAP-19) VH: EVQLVESGGGLVKPGGSPKLSCAASGFAFSSYDMSWVRQTPEKRLEWVAYISSGGGSTYYPDTMKGRFTISRDNAKNTLYLQMSSLKSEDTAMYYCARHYGTYLYYLDYWGQGTTLTVSS VL: DIVLTQSPATLSVTPGDRVSLSCRASQNISDFLHWYQQKSHESPRLLIKYASQSISGIPSRFSGSGSGSDFTLSINSVEPEDVGVYYCQNGHSFPPTFGGGTKLEIK
**Result** 151000

**Query** Return value of kon for input GFAP-5 (antibody, V domains shown, also called mouse anti-GFAP antibody GFAP-5) VH: EVQLVESGGGLVKPGGSLKLSCAASGFTFSAYGMHWVRQAPEKGLEWIAYISSGSSTIYYADTVKGRFTISRDNAKNTLFLQMTSLRSEDTAMYYCASSYALDYWGQGTSVTVSS VL: DVVMTQTPLSLPVSLGDQASISCRSSQSLVYSNGNTYLHWYLQKPGQSPKLLIYKVSNRFSGVPDRFSGSGSGTDFTLKISRVEAEDLGVYFCSQSTHVPYTFGSGTKLEIK , no commentary.
**Result** 20000

**Query** Look up and report measured kon for this entry: GFAP-16 (antibody, V domains shown, also called mouse anti-GFAP antibody GFAP-16) VH: QVQLQQSDAELVKPGASVKISCKASGYTFTDHTIHWVKQRPEQGLEWIGYIYPGDGSTKYNEKFKGKATLTADKSSSTVYMQLNSLTSEDSAVYFCARPAPYWNFDVWGAGTTVTVSS VL: DIQMTQSPSSLSASLGGKVTITCKASQDIKKNIAWYQHKPGKGPRLLIWYTSTLQPGIPSRFSGSGSGRDYSFSISNLEPEDIATYYCLQYDHLRTFGGGTKLEIK
**Result** 173000

**Query** Note down kon recorded for GFAP-17 (antibody, V domains shown, also called mouse anti-GFAP antibody GFAP-17) VH: EVKLEESGGGLVQPGGSMKLSCVASGFTFSYYWMSWVRQSPEKGLEWIAEIRLKSNIYATHYAASVKGRFTISRDDSKSSVYLQMNNLRAEDTGIYFCTRFGTGAMDYWGQGTSVTVSS VL: DIVMSQSPSSLAVSVGEKVTMSCKSSQSLLYRTNQKNYLAWYQQKPGQSPKLLIYWASSRESGVPDRFSGSGSGTDFTLTISSVKAEDLAVYYCQQYYSYPWTFGGGTKLEIK
**Result** 86600
